From: PubChem BioAssay (Tox21)

test.summary: p53 small molecule agonists, cell-based qHTS assay with rat liver microsomes: qHTS cell viability counter screen (AID 1963580); further: on the % scale 0 is the no-effect control and ±100 the full control effect; nearly all actives have a fitted effect of over 45% in size
condition.description: p53RE-bla HCT-116 + rat microsomes, ATP viability, 16 h; series mostly up to 66 µM
Records with an inconclusive call do not appear. Calls of active or inactive are those of the source. The call rests on the fitted dose curve.
measurement.kind: activity change, negative = cytotoxicity

mol: O=[N+]([O-])c1ccccc1CCO
endpoint.value: inactive
//
mol: COc1ccc2cccc(CCNC(C)=O)c2c1
endpoint.value: inactive
//
mol: CCCc1cc(C(N)=S)ccn1
endpoint.value: inactive

----------
test.summary: cAMP Responsive Elements (CRE) small molecule agonists, cell-based qHTS assay (AID 1963590); further: on the % scale 0 is the no-effect control and ±100 the full control effect
condition.description: CRE-bla HEK293T, beta-lactamase FRET ratio, 3 h; series mostly up to 92.4 µM
Results filed as inconclusive are left out. The source made the active and inactive calls. The call rests on the fitted dose curve.
measurement.kind: activation

Worked set:
compound: NC(=O)Nc1ccc(Cl)cc1
measurement.kind: activation
endpoint.value: inactive
//
compound: C[Si](C)=O
measurement.kind: activation
endpoint.value: 0.463% [at 8.39 µM] (inactive)
//
compound: CC(=O)c1ccc2ccccc2c1
measurement.kind: activation
endpoint.value: inactive
//
compound: CCCC(C)CO (configuration not stated)
measurement.kind: activation
endpoint.value: inactive
//
compound: O=C(OC(=O)c1ccccc1)c1ccccc1
measurement.kind: activation
endpoint.value: inactive

Fill in: activation of O=C1c2ccccc2C(=O)C1c1ccc2cc(S(=O)(=O)O)cc(S(=O)(=O)O)c2n1 is ___ inactive

Which value of activation has been reported for CC(=O)NCc1c(I)c(NC(C)=O)c(I)c(C(=O)O)c1I in the records? inactive

----------
test.summary: G protein-coupled receptor (GPCR) small molecule agonists, calcium flux assay: HEK293 wild type cell line counter screen (AID 1920065); further: on the % scale 0 is the no-effect control and ±100 the full control effect
condition.description: HEK293 WT calcium flux, fluorescence, agonist mode; series mostly up to 57.6 µM
The source made the active and inactive calls. Calls follow the shape of the full dose curve.
measurement.kind: activation

molecule: CCCCCCCCCCCCCCCCI
activation: 2.83% [at 11.8 µM] (inactive)
//
molecule: NC(=O)Cc1cccc(C(=O)c2ccccc2)c1N
activation: inactive
//
molecule: CCCCCCCCS
activation: inactive
//
molecule: O=C(O)/C=C/c1ccc(Cn2ccnc2)cc1
activation: inactive
//
molecule: [Cl][Eu]([Cl])[Cl]
activation: inactive
//
molecule: Cc1cccc2c1ccc1ccccc12
activation: inactive
//
molecule: CCNc1cc(O)ccc1C
activation: inactive
//
molecule: NCC1CCCC(CN)C1 (configuration not stated)
activation: inactive
//
molecule: O=S(=O)(O)CCS
activation: inactive
//
molecule: CCCC(=O)C(C)=O
activation: inactive

Request the reported activation associated with CN1CCCC1=O inactive

Entry C=C(C)C(=O)OCCC[Si](Cl)(Cl)Cl : reported activation = ? inactive

# input molecule: CN(C1CCCCC1)S(=O)(=O)c1ccccc1N ; wanted: its activation inactive

Consider the molecule CC(C)c1ccc(S(=O)(=O)O)cc1 and give its measured activation. inactive

GET /values?readout=activation&item= O=Cc1ccc(Cl)cc1 inactive

Fill in: activation of C=CC(C)(CCC=C(C)C)OC=O (configuration not stated) is ___ inactive

# get_value(readout='activation', item= CCO/C([O-])=N/c1c[n+](N2CCOCC2)no1 ) inactive
